These measurements were taken from patent US12310975B2.

# Target: UniProt:P41182
# Assay Remarks: Immunofluorescence high content imaging of BCL6 degradation in T47D cells
# Type: cell-based
# Assay Conditions: T47D
Experimental Endpoint: Dmax

Query: Endpoint output: Dmax of CNC(=O)COc1cc2cc(Nc3nc(N4CCN(CC5CN(c6ccc7c(c6)C(=O)N(C6CCC(=O)NC6=O)C7=O)C5)CC4)ncc3Cl)ccc2n(C)c1=O (stereo not drawn) . Value?
Reply: ≥ 70%

Query: Quick one: Dmax of CNC(=O)COc1cc2cc(Nc3nc(N4CCN(C(C)(C)C5CCN(c6cccc7c6C(=O)N(C6CCC(=O)NC6=O)C7=O)CC5)CC4)ncc3Cl)ccc2n(C)c1=O (stereo not drawn) ?
Reply: ≥ 70%

Query: Consider the compound shown here: CNC(=O)COc1cc2cc(Nc3nc(N4CCC(CN5CCC6(C5)CN(c5ccc7c(c5)C(=O)N(C5CCC(=O)NC5=O)C7=O)C6)CC4)ncc3Cl)ccc2n(C(C)C)c1=O (stereo not drawn) What is its recorded Dmax?
Reply: 50 to 70%

---

# Target: UniProtKB P41182
# Assay Remarks: Immunofluorescence high content imaging of BCL6 degradation in T47D cells
# Assay type: cell-based
# Assay Conditions: T47D cells
# Description: Immunofluorescence Protocol for High Cotent Imaging of BCL6 T47D cells were seeded in 100 μl volume of RPMI1640-10% FBS in a 96-well black/clear bottom plates for adherent lines (Corning #3904). Day 1. T47D breast cancer epithelial cells were seeded at a density so that confluence is ˜70-90% at endpoint. Cells were seeded at 7K/0.1 ml/well the morning prior to the addition of exemplary bifunctional degradation compounds. Day 2. […] Plates were equilibrated to room temperature prior to reading. […]
Dmax listing for selected molecules.

molecule="CNC(=O)COc1cc2cc(Nc3nc(N4CCC(CN5CCC6(CC5)CN(c5ccc7c(c5)C(=O)N(C5CCC(=O)NC5=O)C7=O)C6)CC4)ncc3Cl)ccc2n(C(C)C)c1=O (centres unmarked)" experimental_endpoint=Dmax assay_value="50 to 70%"

Query: Name the recorded Dmax for CNC(=O)COc1cc2cc(Nc3nc(N4CCN(CC5CCN(c6cccc(C(=O)NC7CCC(=O)NC7=O)[n+]6[O-])CC5)CC4)ncc3Cl)ccc2n(C(C)C)c1=O (centres unmarked) .
Reply: < 50%

Query: Would you kindly share the measured Dmax for CNC(=O)COc1cc2cc(Nc3nc(N4C[C@@H](COc5ccc6c(c5)C(=O)N(C5CCC(=O)NC5=O)C6=O)O[C@@H](C)C4)ncc3Cl)ccc2n(C(C)C)c1=O (some centres unmarked) ?
Reply: 50 to 70%

---

Catalogue of IC50 values
# Target: BCL6 (Homo sapiens (Human))
# Assay Remarks: Immunofluorescence high content imaging of BCL6 degradation in T47D cells
# Format: cell-based
# Assay Conditions: T47D cells

Answered cases to consult:
compound="CNC(=O)COc1cc2cc(Nc3nc(N4CCN(CC5CCN(c6cccc(C(=O)NC7CCC(=O)NC7=O)n6)CC5)CC4)ncc3Cl)ccc2n(C)c1=O (centres unmarked)" assay_value="< 10 nM"
compound="CN1C(=O)CCc2cc(Nc3nc(N4CCN(CC5CCN(c6ccc7c(c6)C(=O)N(C6CCC(=O)NC6=O)C7=O)CC5)CC4)ncc3Cl)ccc21 (centres unmarked)" assay_value="≥ 100 nM"
compound="CNC(=O)COc1cc2cc(Nc3nc(N4CCC(O[C@H]5C[C@H](N6CCC(c7cccc8c7C(=O)N(C7CCC(=O)NC7=O)C8=O)CC6)C5)CC4)ncc3Cl)ccc2n(C(C)C)c1=O (some centres unmarked)" assay_value="< 10 nM"
compound="CNC(=O)COc1cc2cc(Nc3nc(N4CCN(CC5CCN(c6ccc(C(=O)NC7CCC(=O)NC7=O)c(OC)c6)CC5)CC4)ncc3Cl)ccc2n(C(C)C)c1=O (centres unmarked)" assay_value="< 10 nM"

Query compound follows.
Query: State the recorded IC50 for this entry: CNC(=O)COc1cc2cc(Nc3nc(N4CCC(OC5CC6(C5)CN(c5cccc(C(=O)NC7CCC(=O)NC7=O)c5F)C6)CC4)ncc3Cl)ccc2n(C(C)C)c1=O (centres unmarked)
Reply: 10 to 50 nM
